The compounds listed here are annotated with their TGI.
test system: HL-60(TB) leukemia; assay: NCI tumour cell line growth inhibition, 48 h
quantity kind: TGI

COc1ccc(NC(=O)CC(=O)n2nc(-c3ccccc3)c(N=Nc3ccc(C)cc3)c2-c2ccccc2)cc1 = > 100 µM
CC12CCC3=C(CSC4=C3CSc3ccccc34)C1=CCCC2=O (stereo not drawn) = > 100 µM
OCCOCn1nc(-c2ccccc2)nc1-c1cnccn1 = > 100 µM
COC1=CC(=O)c2c(O)c3c(c(O)c2C1=O)CC(C)(O)OC3 (stereo not drawn) = 24.2 µM
O=C1/C(=C/c2ccc(F)cc2)CN(Cc2cn(CCNc3ccnc4cc(Cl)ccc34)nn2)C/C1=C\c1ccc(F)cc1 = 4.97 µM
N#CC1=C(N)NC(=S)NC1c1ccc(-c2ccc(-c3nc4ccccc4s3)cc2)o1 (stereo not drawn) = > 50 µM
COc1ccc2c(c1)C(CCN)C(=O)N2 (stereo not drawn) = > 100 µM
N#CC1=C(N)Oc2c(sc3c(F)cccc23)C1c1ccc(Cl)cc1 (stereo not drawn) = 8.3 µM
O=C(N/C(=C\c1cc(Cl)ccc1Cl)c1nc2ccccc2[nH]1)c1ccccc1 = 67 µM
Nc1c2c(nc3ccccc13)-c1ccccc1CCC2 = 26.4 µM
N.N.NCCCCN.O=C([O-])CCl.O=C([O-])CCl.O=C([O-])CCl.O=C([O-])CCl.[Pt+4].[Pt+4] = > 50 µM
O=C(O)C(=O)/C=C\c1ccc(Cl)cc1 = > 100 µM
CN(C)CCNc1ccccn1 = > 100 µM
